Each recorded value in this set is attributed to patent US20050203007A1.

Biological target: T1, secreted, soluble furin (human, UniProt P09958 108-715, limits assumed)
T1 construct: Secreted, soluble construct; also called human furin
T1 sequence (P09958 108-715 limits assumed): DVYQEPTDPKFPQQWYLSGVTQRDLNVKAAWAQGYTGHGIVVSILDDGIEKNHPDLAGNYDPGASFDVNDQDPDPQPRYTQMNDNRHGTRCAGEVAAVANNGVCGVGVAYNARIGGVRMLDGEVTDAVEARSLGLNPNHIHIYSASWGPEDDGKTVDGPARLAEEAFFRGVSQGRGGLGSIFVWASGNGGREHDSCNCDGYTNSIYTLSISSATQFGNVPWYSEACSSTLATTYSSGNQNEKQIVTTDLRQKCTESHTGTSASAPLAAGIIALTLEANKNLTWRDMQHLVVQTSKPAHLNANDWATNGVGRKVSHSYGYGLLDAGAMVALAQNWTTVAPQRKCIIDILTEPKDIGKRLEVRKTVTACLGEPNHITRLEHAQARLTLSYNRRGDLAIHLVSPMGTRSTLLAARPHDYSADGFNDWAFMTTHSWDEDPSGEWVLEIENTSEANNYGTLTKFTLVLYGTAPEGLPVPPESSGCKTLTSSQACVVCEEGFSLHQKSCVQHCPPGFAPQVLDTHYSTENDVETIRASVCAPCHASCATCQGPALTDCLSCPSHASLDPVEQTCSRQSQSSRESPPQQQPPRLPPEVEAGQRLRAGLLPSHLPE
Assay: enzyme inhibition, fluorogenic substrate; * temporary inhibition
Protocol: Affinities of eglin variants with secreted, soluble Kex2 (hereafter “Kex2”; Brenner, C. and Fuller, R. S. (1992) Proc. Natl. Acad. Sci. USA 89: 922-926) and secreted, soluble furin (hereafter, “furin”; Bravo, D. A. et al (1994) J. Biol. Chem. 269: 25830-25837; and Komiyama & Fuller (2000) Biochemistry 39: 15156-15165) were measured by incubating variants with the enzymes (˜0.5 to 2.0 nM) for 45 min to 1 h at 21° C. in one of two enzyme assay buffers. […]
pKi: −log10 of the molar value.
readout-name: pKi

M4K2R1-eglin (designed binder, N-terminal Met removed) SMGSELKSFPEVVGKTVDQAREYFTLHYPQYDVYFLPEGSMVKRDLRYNRVRVFYNPGTNVVNHVPHVG : 7.08

P = K2R1-eglin (designed binder, N-terminal Met removed) SMGSELKSFPEVVGKTVDQAREYFTLHYPQYDVYFLPEGSPVKRDLRYNRVRVFYNPGTNVVNHVPHVG
Q = R6R4R1-eglin (designed binder, N-terminal Met removed; also called Gly40 Arg on R4R1-template) SMGSELKSFPEVVGKTVDQAREYFTLHYPQYDVYFLPERSRVTRDLRYNRVRVFYNPGTNVVNHVPHVG
Task item: Could you check which of P and Q has a smaller value for pKi? Use the label to indicate which entry you chose.
Reply: P
